- test method notes: Equilibrium solubility of crystal forms by UV-Vis spectrophotometry (279 nm)
- Type: physicochemical
- stated conditions: hydrochloric acid solution, pH 1.2, simulated gastric fluid, thermodynamic from solid, pH = 1.2 hydrochloric acid; read-out: solubility
measured property: solubility (mg/mL)
# value in mg/mL; strip the unit string

Please give the measured solubility for this compound: Cn1c(=O)cc(N2CCC[C@@H](N)C2)n(Cc2cc(F)ccc2C#N)c1=O
54

###

- test method notes: Equilibrium solubility of crystal forms by UV-Vis spectrophotometry (279 nm)
- Assay type: physicochemical
- stated conditions: pH = 1.2 hydrochloric acid
measured property: solubility (mg/mL)
Your answer should be a plain number; it is taken to be in mg/mL.

Given Cn1c(=O)cc(N2CCC[C@@H](N)C2)n(Cc2cc(F)ccc2C#N)c1=O [TRE-III] , state its recorded solubility.
39.76

Also need Cn1c(=O)cc(N2CCC[C@@H](N)C2)n(Cc2cc(F)ccc2C#N)c1=O [TRE-IV] , thanks.
73.49

Same for Cn1c(=O)cc(N2CCC[C@@H](N)C2)n(Cc2cc(F)ccc2C#N)c1=O [TRE-V]
76.01

How about Cn1c(=O)cc(N2CCC[C@@H](N)C2)n(Cc2cc(F)ccc2C#N)c1=O [TRE-II] ?
45.91

Cited source for all entries: patent US20250163018A1
